molecular target: dopamine transporter (DAT) (Homo sapiens, UniProt Q01959); construct: expressed in transfected cells; host or cells: CHO (uptake); experiment: Fluorescent substrate uptake inhibition, DAT; type: cell-based; settings: 10 μM, CHO cells expressing DAT
Sequence (Q01959 whole entry, species assumed): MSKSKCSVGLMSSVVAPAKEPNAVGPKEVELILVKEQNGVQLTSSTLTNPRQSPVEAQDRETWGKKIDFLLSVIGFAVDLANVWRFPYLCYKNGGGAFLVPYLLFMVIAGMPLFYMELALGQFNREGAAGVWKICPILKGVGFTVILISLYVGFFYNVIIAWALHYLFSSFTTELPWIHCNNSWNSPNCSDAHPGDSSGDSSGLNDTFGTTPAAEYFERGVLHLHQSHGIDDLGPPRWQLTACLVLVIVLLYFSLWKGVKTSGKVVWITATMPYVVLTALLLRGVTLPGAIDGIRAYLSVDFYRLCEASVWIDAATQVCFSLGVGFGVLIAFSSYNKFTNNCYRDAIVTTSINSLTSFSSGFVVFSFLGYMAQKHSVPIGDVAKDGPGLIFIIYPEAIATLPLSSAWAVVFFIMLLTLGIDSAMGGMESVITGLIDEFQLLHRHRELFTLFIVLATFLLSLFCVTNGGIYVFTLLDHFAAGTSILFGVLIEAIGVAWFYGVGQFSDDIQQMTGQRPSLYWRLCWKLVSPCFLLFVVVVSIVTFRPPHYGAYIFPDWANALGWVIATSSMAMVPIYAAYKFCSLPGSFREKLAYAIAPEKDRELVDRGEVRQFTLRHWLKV
// reported inhibition at 10 µM per item
assay.endpoint: inhibition at 10 µM (%)

molecule="O=C1CCCC[C@]1(c1ccccc1)N1CCC1 [Compound 84R]" assay_endpoint="inhibition at 10 µM" units=% recorded_measurement=28.2
molecule="Cc1ccccc1[C@]1(N)CCCCC1=O [Compound 114R, (R)-2-amino-2-(o-tolyl)cyclohexan-1-one]" assay_endpoint="inhibition at 10 µM" units=% recorded_measurement=6.2
molecule="CC(C)N[C@@]1(c2ccccc2)CCCCC1=O [Compound 28R]" assay_endpoint="inhibition at 10 µM" units=% recorded_measurement=16.5
molecule="Cc1ccccc1[C@@]1(N)CCCCC1=O [Compound 114S, (S)-2-amino-2-(o-tolyl)cyclohexan-1-one]" assay_endpoint="inhibition at 10 µM" units=% recorded_measurement=-15.2
molecule="CN[C@@]1(c2cccc(F)c2)CCCCC1=O [Compound 19R]" assay_endpoint="inhibition at 10 µM" units=% recorded_measurement=-10.7
molecule="COCCN[C@@]1(c2ccccc2)CCCCC1=O [Compound 29R]" assay_endpoint="inhibition at 10 µM" units=% recorded_measurement=-7.1
molecule="Cc1cccc(C2(N)CCCCC2=O)c1 (racemic)" assay_endpoint="inhibition at 10 µM" units=% recorded_measurement=23.8
molecule="[2H]C([2H])([2H])N[C@@]1(c2ccccc2)CCCCC1=O [Compound 88R]" assay_endpoint="inhibition at 10 µM" units=% recorded_measurement=7.9
molecule="CC1CCN1C1(c2ccccc2)CCCCC1=O (stereo not shown) [Compound 128mix]" assay_endpoint="inhibition at 10 µM" units=% recorded_measurement=19.2
molecule="CN[C@@]1(c2ccccc2C)CCCCC1=O [Compound 38R]" assay_endpoint="inhibition at 10 µM" units=% recorded_measurement=-2.2
molecule="CN[C@]1(c2ccccc2)CCCCC1=O [Compound 14S]" assay_endpoint="inhibition at 10 µM" units=% recorded_measurement=-4.5
molecule="O=C1CCCCC1(c1ccccc1)N1CCCC1 (racemic)" assay_endpoint="inhibition at 10 µM" units=% recorded_measurement=49.5
molecule="O=C1CCCC[C@@]1(c1ccccc1)N1CCC1 [Compound 84S]" assay_endpoint="inhibition at 10 µM" units=% recorded_measurement=32.2
